Test system: SPI1 type III protein secretion of SipB by S. enterica
Assay: Secondary assay: Type III-dependent protein secretion of the SipB polypeptide by S. enterica
Assay type: cell-based
Conditions: Salmonella enterica, read-out: SipB IC50(uM)
readout_label: IC50 (µM)
Please respond with the number in µM and leave the unit unwritten.

Kindly note the recorded IC50 for O=C(N[C@H](Cc1ccc(Cl)cc1)C(=O)O)c1cc(N2CCC(c3ccccc3)CC2)nc(-c2cccc(C(F)(F)F)c2)n1 [Compound 12] , which is 28.1

Kindly note the recorded IC50 for O=C(N[C@@H](CSCc1ccccc1)C(=O)O)c1cc(N2CCN(c3ccccc3)CC2)nc(-c2ccc(F)c(F)c2)n1 [Compound 19] , which is 8

Kindly note the recorded IC50 for O=C(N[C@@H](COCc1ccccc1)C(=O)O)c1cc(-c2ccc(Cl)c(Cl)c2)nc(N2CCN(c3ccccc3)CC2)n1 [Compound 32] , which is 5.7

Kindly note the recorded IC50 for O=C(N[C@H](Cc1ccc(Cl)cc1)C(=O)O)c1cc(N2CCCc3ccccc32)nc(-c2ccc(Oc3ccccc3)cc2)n1 [Compound 16] , which is 10.2

Kindly note the recorded IC50 for CN(C)c1ccc(-c2nc(C(=O)N[C@H](Cc3ccc(Cl)cc3)C(=O)O)cc(N3CCC(c4ccccc4)CC3)n2)cc1 [Compound 14] , which is 27.6

Kindly note the recorded IC50 for O=C(N[C@@H](CSCc1ccccc1)C(=O)O)c1cc(N2CCCCC2)nc(-c2ccc(-c3ccccc3)cc2)n1 [Compound 3] , which is 3

Kindly note the recorded IC50 for O=C(N[C@H](Cc1ccc(Cl)cc1)C(=O)O)c1cc(N2CCC(c3ccccc3)CC2)nc(-c2ccc(C(F)(F)F)cc2)n1 [Compound 15] , which is 8.5

Kindly note the recorded IC50 for O=C(NC(Cc1ccc(Cl)cc1)C(=O)O)c1cc(N2CCN(c3nccc(C(F)(F)F)n3)CC2)nc(-c2cccs2)n1 (centres unmarked) [Compound 59] , which is 17.1

Kindly note the recorded IC50 for O=C(NC(Cc1ccc(Cl)cc1)C(=O)O)c1cc(N2CCN(c3nccc(C(F)(F)F)n3)CC2)nc(-c2ccc([N+](=O)[O-])cc2)n1 (centres unmarked) [Compound 53] , which is 84.6

Kindly note the recorded IC50 for O=C(N[C@@H](COCc1ccccc1)C(=O)O)c1cc(N2CCN(c3nccc(C(F)(F)F)n3)CC2)nc(-c2ccoc2)n1 [Compound 60] , which is 15.6

Kindly note the recorded IC50 for O=C(N[C@@H](CSCc1ccccc1)C(=O)O)c1cc(N2CCN(c3nccc(C(F)(F)F)n3)CC2)nc(-c2cccs2)n1 [Compound 58] , which is 10.6

Kindly note the recorded IC50 for O=C(N[C@@H](CSCc1ccccc1)C(=O)O)c1cc(N2CCN(c3nccc(C(F)(F)F)n3)CC2)nc(-c2ccc(F)cc2)n1 [Compound 55] , which is 20.5

Kindly note the recorded IC50 for O=C(N[C@@H](CSCc1ccccc1)C(=O)O)c1cc(N2CCC(c3ccc(F)cc3)CC2)nc(-c2ccc(Cl)c(Cl)c2)n1 [Compound 17] , which is 23

Kindly note the recorded IC50 for O=C(N[C@@H](CSCc1ccccc1)C(=O)O)c1cc(N2CCC(c3ccccc3)CC2)nc(-c2ccc(C(F)(F)F)cc2)n1 [Compound 21] , which is 24.8

Kindly note the recorded IC50 for CC1CCN(c2cc(C(=O)N[C@@H](COCc3ccccc3)C(=O)O)nc(-c3ccc(-c4ccccc4)cc3)n2)CC1 [Compound 41] , which is 28.6

Kindly note the recorded IC50 for CC1CCN(c2nc(C(=O)NC(Cc3ccc(Cl)cc3)C(=O)O)cc(N3CCN(c4nccc(C(F)(F)F)n4)CC3)n2)CC1 (centres unmarked) [Compound 48] , which is 40

Kindly note the recorded IC50 for CN(C)c1ccc(-c2nc(C(=O)N[C@H](Cc3ccc(Cl)cc3)C(=O)O)cc(N3CCc4ccccc4C3)n2)cc1 [Compound 6] , which is 50

Kindly note the recorded IC50 for Cc1cc(C(=O)NC(Cc2ccc(Cl)cc2)C(=O)O)nc(-c2ccc(-c3ccccc3)cc2)n1 (centres unmarked) [Compound 1] , which is 4.4

Kindly note the recorded IC50 for O=C(N[C@H](Cc1ccc(Cl)cc1)C(=O)O)c1cc(N2CCCc3ccccc32)nc(-c2cccc(C(F)(F)F)c2)n1 [Compound 13] , which is 19.4

Kindly note the recorded IC50 for O=C(N[C@@H](CSCc1ccccc1)C(=O)O)c1cc(N2CCN(c3nccc(C(F)(F)F)n3)CC2)nc(-c2ccoc2)n1 [Compound 61] , which is 43.2

Kindly note the recorded IC50 for CC1CCN(c2cc(C(=O)NC(Cc3ccc(Cl)cc3)C(=O)O)nc(-c3ccc(-c4ccccc4)cc3)n2)CC1 (centres unmarked) [Compound 42] , which is 22.3

Kindly note the recorded IC50 for O=C(NC(Cc1ccc(Cl)cc1)C(=O)O)c1cc(N2CCN(c3nccc(C(F)(F)F)n3)CC2)nc(-c2ccoc2)n1 (centres unmarked) [Compound 62] , which is 12.6

Kindly note the recorded IC50 for O=C(N[C@@H](COCc1ccccc1)C(=O)O)c1cc(N2CCN(c3nccc(C(F)(F)F)n3)CC2)nc(-c2cccs2)n1 [Compound 57] , which is 13.3

All values here come from patent US20050282824A1.
